measurement_description: tissue drug levels of free and liposomal vincristine (radioimmunoassay)
Assay type: in vivo, CD2 F1 mice
measurement_context: mouse, lung, iv, 1 mg/kg, lung; 1.0 mg; 15'; read-out: vincristine level, lung
measured_attribute: concentration at 0.25 h (ng/g)
Please state the figure in ng/g; there is no need to write the unit.

INPUT: So what does the record say about concentration at 0.25 h for CC[C@]1(O)C[C@H]2CN(CCc3c([nH]c4ccccc34)[C@@](C(=O)OC)(c3cc4c(cc3OC)N(C=O)[C@H]3[C@@](O)(C(=O)OC)[C@H](OC(C)=O)[C@]5(CC)C=CCN6CC[C@]43[C@@H]65)C2)C1 [free vincristine, vincristine] ?
OUTPUT: 78

----------
measurement_description: plasma pharmacokinetics of free and liposomal vincristine (radioimmunoassay)
Type: in vivo, CD2 F1 mice
measurement_context: mouse, iv, 1 mg/kg; plasma; 1.0 mg; 5'; read-out: plasma level
measured_attribute: concentration at 5 min (µg/mL)
Please state the figure in µg/mL; there is no need to write the unit.

INPUT: So what does the record say about concentration at 5 min for CC[C@]1(O)C[C@H]2CN(CCc3c([nH]c4ccccc34)[C@@](C(=O)OC)(c3cc4c(cc3OC)N(C=O)[C@H]3[C@@](O)(C(=O)OC)[C@H](OC(C)=O)[C@]5(CC)C=CCN6CC[C@]43[C@@H]65)C2)C1 [free vincristine, vincristine] ?
OUTPUT: 0.63

----------
measurement_description: tissue drug levels of free and liposomal vincristine (radioimmunoassay)
Assay type: in vivo, CD2 F1 mice
measurement_context: mouse, lung, iv, 1 mg/kg, lung; 1.0 mg; 1h; read-out: vincristine level, lung
measured_attribute: concentration at 1 h
Express your answer as a number followed by its unit.

INPUT: So what does the record say about concentration at 1 h for CC[C@]1(O)C[C@H]2CN(CCc3c([nH]c4ccccc34)[C@@](C(=O)OC)(c3cc4c(cc3OC)N(C=O)[C@H]3[C@@](O)(C(=O)OC)[C@H](OC(C)=O)[C@]5(CC)C=CCN6CC[C@]43[C@@H]65)C2)C1 [free vincristine, vincristine] ?
OUTPUT: 75 ng/g

----------
measurement_description: tissue drug levels of free and liposomal vincristine (radioimmunoassay)
Assay type: in vivo, CD2 F1 mice
measurement_context: mouse, kidney, iv, 1 mg/kg, kidney; 1.0 mg; 15'; read-out: vincristine level, kidney
measured_attribute: concentration at 0.25 h (ng/g)
Please state the figure in ng/g; there is no need to write the unit.

INPUT: So what does the record say about concentration at 0.25 h for CC[C@]1(O)C[C@H]2CN(CCc3c([nH]c4ccccc34)[C@@](C(=O)OC)(c3cc4c(cc3OC)N(C=O)[C@H]3[C@@](O)(C(=O)OC)[C@H](OC(C)=O)[C@]5(CC)C=CCN6CC[C@]43[C@@H]65)C2)C1 [free vincristine, vincristine] ?
OUTPUT: 64

----------
measurement_description: tissue drug levels of free and liposomal vincristine (radioimmunoassay)
Assay type: in vivo, CD2 F1 mice
measurement_context: mouse, brain, iv, 1 mg/kg, brain; 1.0 mg; 8h; read-out: vincristine level, brain
measured_attribute: concentration at 8 h

INPUT: So what does the record say about concentration at 8 h for CC[C@]1(O)C[C@H]2CN(CCc3c([nH]c4ccccc34)[C@@](C(=O)OC)(c3cc4c(cc3OC)N(C=O)[C@H]3[C@@](O)(C(=O)OC)[C@H](OC(C)=O)[C@]5(CC)C=CCN6CC[C@]43[C@@H]65)C2)C1 [free vincristine, vincristine] ?
OUTPUT: 29 ng/g
